Test system: Staphylococcus aureus
protocol.description: In vitro inhibitory activity against Staphylococcus aureus (EryRi 011GO25i)
Type: functional
For each entry below, report its MIC value.
Give the value, in units of µg/mL, as a plain number.

Lookup: Requested read-out: MIC. Entry: CC[C@H]1OC(=O)[C@H](C)C(=O)[C@H](C)[C@@H](O[C@@H]2O[C@H](C)C[C@H](N(C)C)[C@H]2O)[C@](C)(OC)C[C@@H](C)/C(=N\OC2CCCN(CCCc3ccc(O)cc3)C2)[C@H](C)[C@@H](O)[C@]1(C)O (some centres undefined)
Found: 0.6

Lookup: Repeat with `CC[C@H]1OC(=O)[C@H](C)C(=O)[C@H](C)[C@@H](O[C@@H]2O[C@H](C)C[C@H](N(C)C)[C@H]2O)[C@](C)(OC)C[C@@H](C)C(=O)[C@H](C)[C@H]2N(CCCCc3ccccc3)C(=O)O[C@]12C`
Found: 0.15

Lookup: Queued: `CC[C@H]1OC(=O)[C@H](C)C(=O)[C@H](C)[C@@H](O[C@@H]2O[C@H](C)C[C@H](N(C)C)[C@H]2O)[C@](C)(OC)C[C@@H](C)/C(=N\OCCN2CCCC2)[C@H](C)[C@@H](O)[C@]1(C)O`
Found: 2.5

Lookup: Do the same for `CC[C@H]1OC(=O)[C@H](C)C(=O)[C@H](C)[C@@H](O[C@@H]2O[C@H](C)C[C@H](N(C)C)[C@H]2O)[C@](C)(OC)C[C@@H](C)/C(=N\O[C@@H]2CCCN(Cc3ccc(-c4ccccc4)cc3)C2)[C@H](C)[C@@H](O)[C@]1(C)O` please
Found: 0.3

* * *

Test system: Streptococcus pneumoniae
protocol.description: In vitro inhibitory activity against Streptococcus pneumoniae (EryRi 030SJ5i)
Format: functional
recorded.metric: MIC (µg/mL)
// return numeric value only (unit: µg/mL, not printed)

Lookup: Which MIC is reported with Streptococcus pneumoniae for this entry: CCCCCCCCCCN1CCCC(O/N=C2\[C@H](C)C[C@@](C)(OC)[C@H](O[C@@H]3O[C@H](C)C[C@H](N(C)C)[C@H]3O)[C@@H](C)C(=O)[C@@H](C)C(=O)O[C@H](CC)[C@@](C)(O)[C@H](O)[C@H]2C)C1 (some centres undefined) ?
Found: 0.3

Lookup: What do you get for CC[C@H]1OC(=O)[C@H](C)C(=O)[C@H](C)[C@@H](O[C@@H]2O[C@H](C)C[C@H](N(C)C)[C@H]2O)[C@](C)(OC)C[C@@H](C)/C(=N\OC2CCCN(CCCc3ccc(O)cc3)C2)[C@H](C)[C@@H](O)[C@]1(C)O (some centres undefined) ?
Found: 0.15

Lookup: # iterate: CC[C@H]1OC(=O)[C@H](C)[C@@H](O[C@H]2C[C@@](C)(OC)[C@@H](O)[C@H](C)O2)[C@H](C)[C@@H](O[C@@H]2O[C@H](C)C[C@H](N(C)C)[C@H]2O)[C@](C)(O)C[C@@H](C)C(=O)[C@H](C)[C@@H](O)[C@]1(C)O [ERYTHROMYCIN]
Found: 40

Lookup: Queued: `CC[C@H]1OC(=O)[C@H](C)C(=O)[C@H](C)[C@@H](O[C@@H]2O[C@H](C)C[C@H](N(C)C)[C@H]2O)[C@](C)(OC)C[C@@H](C)C(=O)[C@H](C)[C@H]2N(CCCc3ccccc3)C(=O)O[C@]12C`
Found: 20

* * *

System: Streptococcus pneumoniae
protocol.description: In vitro inhibitory activity against Streptococcus pneumoniae (EryRi 030SJ5i)
Assay type: functional
Exercise: for every item that follows, state its recorded MIC.
Write down the numeric answer in µg/mL and omit the unit.

Lookup: Please report the recorded MIC for `CC[C@H]1OC(=O)[C@H](C)C(=O)[C@H](C)[C@@H](O[C@@H]2O[C@H](C)C[C@H](N(C)C)[C@H]2O)[C@](C)(OC)C[C@@H](C)/C(=N\OC[C@@H](N)C(=O)OC)[C@H](C)[C@@H](O)[C@]1(C)O` .
Found: 20

Lookup: Please give the result for `CC[C@H]1OC(=O)[C@H](C)[C@@]2(O)O[C@@](C)(C[C@@H](C)/C(=N\OCOCCOC)[C@H](C)[C@@H](O)[C@]1(C)O)[C@H](O[C@@H]1O[C@H](C)C[C@H](N(C)C)[C@H]1O)[C@H]2C` too.
Found: 40

Lookup: Now this one: `CC[C@H]1OC(=O)[C@H](C)C(=O)[C@H](C)[C@@H](O[C@@H]2O[C@H](C)C[C@H](N(C)C)[C@H]2O)[C@](C)(OC)C[C@@H](C)C(=O)[C@H](C)[C@H]2N(N)C(=O)O[C@]12C`
Found: 40

Lookup: Next molecule: `CC[C@H]1OC(=O)[C@H](C)C(=O)[C@H](C)[C@@H](O[C@@H]2O[C@H](C)C[C@H](N(C)C)[C@H]2O)[C@](C)(OC)C[C@@H](C)/C(=N\O[C@H]2CCCNC2)[C@H](C)[C@@H](O)[C@]1(C)O`
Found: 0.08

Lookup: Moving on to the next molecule: `CC[C@H]1OC(=O)[C@H](C)C(=O)[C@H](C)[C@@H](O[C@@H]2O[C@H](C)C[C@H](N(C)C)[C@H]2O)[C@](C)(OC)C[C@@H](C)/C(=N\O)[C@H](C)[C@@H](O)[C@]1(C)O`
Found: 40

Lookup: Lookup `CC[C@H]1OC(=O)[C@H](C)C(=O)[C@H](C)[C@@H](O[C@@H]2O[C@H](C)C[C@H](N(C)C)[C@H]2O)[C@](C)(OC)C[C@@H](C)C2=NCCN3C(=O)O[C@@]1(C)[C@H]3[C@H]2C`
Found: 40

Lookup: What do you have for `CC[C@H]1OC(=O)[C@H](C)C(=O)[C@H](C)[C@@H](O[C@@H]2O[C@H](C)C[C@H](N(C)C)[C@H]2O)[C@](C)(OC)C[C@@H](C)/C(=N\OCCN2CCCC2)[C@H](C)[C@@H](O)[C@]1(C)O` ?
Found: 40

Lookup: Also check `CC[C@H]1OC(=O)[C@H](C)C(=O)[C@H](C)[C@@H](O[C@@H]2O[C@H](C)C[C@H](N(C)C)[C@H]2O)[C@](C)(OC)C[C@@H](C)C(=O)[C@@H](C)[C@H]2NC(=O)O[C@@]21C`
Found: 40

Lookup: What do you get for `CC[C@H]1OC(=O)[C@H](C)C(=O)[C@H](C)[C@@H](O[C@@H]2O[C@H](C)C[C@H](N(C)C)[C@H]2O)[C@](C)(OC)C[C@@H](C)C(=O)[C@H](C)[C@H]2N(CCN(C)Cc3ccccc3)C(=O)O[C@]12C` ?
Found: 0.3

* * *

Would you mind telling me the reported MIC of each entry?
Test system: Streptococcus pneumoniae
protocol.description: In vitro inhibitory activity against Streptococcus pneumoniae (EryRi 030SJ5i)
Format: functional
Write down the value, and be sure its unit follows.

Lookup: Notebook: pull reported MIC for Streptococcus pneumoniae, entry `CC[C@H]1OC(=O)[C@H](C)C(=O)[C@H](C)[C@@H](O[C@@H]2O[C@H](C)C[C@H](N(C)C)[C@H]2O)[C@](C)(OC)C[C@@H](C)/C(=N\OCCN2CCOCC2)[C@H](C)[C@@H](O)[C@]1(C)O`
Found: 20 µg/mL

Lookup: // next record `CCCN1C(=O)O[C@]2(C)[C@@H](CC)OC(=O)[C@H](C)C(=O)[C@H](C)[C@@H](O[C@@H]3O[C@H](C)C[C@H](N(C)C)[C@H]3O)[C@](C)(OC)C[C@@H](C)C(=O)[C@H](C)[C@@H]12`
Found: 40 µg/mL

Lookup: Consider next the molecule `CC[C@H]1OC(=O)[C@H](C)C(=O)[C@H](C)[C@@H](O[C@@H]2O[C@H](C)C[C@H](N(C)C)[C@H]2O)[C@](C)(OC)C[C@@H](C)/C(=N\OCCN(C)C)[C@H](C)[C@@H](O)[C@]1(C)O` in the same way.
Found: 0.15 µg/mL

Lookup: `CC[C@H]1OC(=O)[C@H](C)C(=O)[C@H](C)[C@@H](O[C@@H]2O[C@H](C)C[C@H](N(C)C)[C@H]2O)[C@](C)(OC)C[C@@H](C)C(=O)[C@H](C)[C@@H](O)[C@]1(C)O` , same question.
Found: 40 µg/mL

Lookup: Also check `CC[C@H]1OC(=O)[C@H](C)C(=O)[C@H](C)[C@@H](O[C@@H]2O[C@H](C)C[C@H](N(C)C)[C@H]2O)[C@](C)(OC)C[C@@H](C)/C(=N\OCc2ccccc2)[C@H](C)[C@@H](O)[C@]1(C)O`
Found: 40 µg/mL

Lookup: Similarly, CC[C@H]1OC(=O)[C@H](C)C(=O)[C@H](C)[C@@H](O[C@@H]2O[C@H](C)C[C@H](N(C)C)[C@H]2O)[C@](C)(OC)C[C@@H](C)/C(=N\OC2CCCN(C)C2)[C@H](C)[C@@H](O)[C@]1(C)O (some centres undefined) ?
Found: 40 µg/mL

Lookup: Would you mind doing `CC[C@H]1OC(=O)[C@H](C)C(=O)[C@H](C)[C@@H](O[C@@H]2O[C@H](C)C[C@H](N(C)C)[C@H]2O)[C@](C)(OC)C[C@@H](C)C(=O)[C@H](C)[C@H]2N(CCCCc3ccnc4c(OC)cccc34)C(=O)O[C@]12C` as well?
Found: 0.08 µg/mL

Lookup: Try the molecule `CC[C@H]1OC(=O)[C@H](C)C(=O)[C@H](C)[C@@H](O[C@@H]2O[C@H](C)C[C@H](N(C)C)[C@H]2O)[C@](C)(OC)C[C@@H](C)C(=O)[C@@H](C)[C@H]2N(N)C(=O)O[C@]12C`
Found: 40 µg/mL

Lookup: Same lookup for `CC[C@H]1OC(=O)[C@H](C)C(=O)[C@H](C)[C@@H](O[C@@H]2O[C@H](C)C[C@H](N(C)C)[C@H]2O)[C@](C)(OC)C[C@@H](C)C(=O)[C@H](C)[C@H]2N(CCCCc3cccc(Cl)c3)C(=O)O[C@]12C` , please.
Found: 0.08 µg/mL
